Test system: SNB-75 CNS
test.name: NCI tumour cell line growth inhibition, 48 h
Where a SMILES comes first, the peptide text is derived from it. [ ]: non-standard residue; d: D form. pGlu = O=C1CC[CH](C(=O)O)N1
Each entry below carries its reported TGI.

Solved entries:
{"molecule": "O=C1CSC(=S)N1", "TGI": "> 100 µM"}
{"molecule": "CCNC(=O)C1CCCN1C(=O)C(CCCN=C(N)N)NC(=O)C(CC(C)C)NC(=O)C(CC(C)C)NC(=O)C(Cc1ccc(O)cc1)NC(=O)C(CO)NC(=O)C(Cc1c[nH]c2ccccc12)NC(=O)C(Cc1cnc[nH]1)NC(=O)C1CCC(=O)N1 (stereo not drawn) ([pGlu]HWSYLLRP-NHEt; configuration not given here)", "TGI": "> 100 µM"}
{"molecule": "C=C(C)[C@@H]1CC[C@]2(C)CC[C@]3(C)[C@H](CC[C@@H]4[C@@]5(C)CC[C@H](O)C(C)(C)[C@@H]5CC[C@]43C)[C@@H]12", "TGI": "> 80.1 µM"}
{"molecule": "O/N=C1/C(=C/c2ccc3c(c2)OCO3)CCCC1C(NO)c1ccc2c(c1)OCO2 (stereo not drawn)", "TGI": "80.1 µM"}
{"molecule": "O=C(O)CCC(=O)N1c2ccccc2CC1c1c[nH]c2ccccc12 (stereo not drawn)", "TGI": "> 100 µM"}

Briefly, TGI measured for CCCCCCCCCCCc1nnc(N)o1 : > 100 µM

GET /value?item= CCOc1cccc(/C=N/N=C2\C(=O)Nc3c(Cl)cc(Cl)cc32)c1O &field=TGI returns 89.6 µM

Notebook: CCCc1cc(=O)oc2c3c(c4c(c12)OC(C)(C)CC4)O[C@@H](C)[C@H](C)[C@H]3O , TGI read as 22.5 µM

Source of measurements: PubChem BioAssay (NCI)
